Origin of measurements: the RNAGym collection of RNA variant scans (doi:10.1093/molbev/msab373)

B1: Azoarcus group I ribozyme (parent)
chain: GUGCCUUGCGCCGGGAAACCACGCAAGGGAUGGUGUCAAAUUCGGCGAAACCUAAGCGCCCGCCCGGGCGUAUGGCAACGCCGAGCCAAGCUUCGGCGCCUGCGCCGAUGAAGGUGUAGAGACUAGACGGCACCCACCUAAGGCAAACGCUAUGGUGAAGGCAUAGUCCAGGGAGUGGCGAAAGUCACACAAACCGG

variants of: B1; experiment: reverse-splicing fitness (ratio to wild type); higher = more active; in vitro selection; Mg2+ level not given
measurement-kind: reverse-splicing fitness

mutation_label="C82A A111U A120G C150A C169U U176A" data_value=0.021
mutation_label="C82G A120C A145C C169G U176G" data_value=0.00428
mutation_label="C82A A111U A120U A145C C150G C169U U176G" data_value=0.00301
mutation_label="C82U A111G A120C A145C C150G C169G" data_value=0.00679
mutation_label="C82A A145U C169A U176G" data_value=0.00484
mutation_label="A111C A120C C150U C169U U176G" data_value=0.0066
mutation_label="C82A A111C C150G U176G" data_value=0.00364
mutation_label="A111G A120G C150U C169U U176C" data_value=0.0607
mutation_label="C82A A111G A120C A145G C150A C169A U176G" data_value=0.00941
mutation_label="C82A A111C A120G A145G C150U C169G U176G" data_value=0.00582
mutation_label="C82G A120C A145G C150G C169U U176C" data_value=0.0134
mutation_label="A111G A120G A145C C150A C169A U176A" data_value=0.0135
mutation_label="C82A A111G A120G C150G C169G U176G" data_value=0.00489
mutation_label="C82U A145G C150A U176C" data_value=0.0964
mutation_label="A111U A120C A145C U176C" data_value=0.243
mutation_label="C82A A111G A120C C150A C169G U176A" data_value=0.0219
mutation_label="C82U A111C A120U A145U C169U U176A" data_value=0.00256
mutation_label="A111U A120C C150A C169G U176A" data_value=0.0168
mutation_label="C82G A111C A120C A145C C150U C169G U176G" data_value=0.00745
mutation_label="A111U A120G C169G U176C" data_value=0.0539
mutation_label="C82A A111G C150A U176G" data_value=0.0144
mutation_label="C82U C150U C169A" data_value=0.00983
